Values compiled from paper PMC9482650.

Target Of Assay: T1, LIN7C, Q9NUP9
T1 sequence (Q9NUP9 88-185, limits assumed, looked up): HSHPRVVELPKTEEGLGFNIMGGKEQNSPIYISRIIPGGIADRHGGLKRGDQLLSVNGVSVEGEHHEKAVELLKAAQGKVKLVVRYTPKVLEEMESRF
Procedure Text: holdup assay
Parameters: key: below the threshold = too weak to quantify, mostly under pKd 3.1 to 4
Condition Summary: plain residues with an end cap or a label only (N-terminal biotin on a linker: ttds)
Binary call on pKd: satisfied from 4 upward, not satisfied beneath that.

Binder	Class Label
PPRQRSETQV [HPV82-E6, Q9IR59]	not satisfied
KLVIKTETTV [RASSF6, Q6ZTQ3]	satisfied
SRSRRRETAL [HPV33-E6, P06427]	satisfied
SGGKRKETLV [NET1, Q7Z628]	satisfied

INPUT: Does the reported pKd for PFRSRSPSEV [GPR6, P46095] fall at or above the 4 mark?
OUTPUT: not satisfied

INPUT: Answer whether pKd of SSIDLWETAL [SLC15A5, A6NIM6] is greater than or equal to 4.
OUTPUT: satisfied

INPUT: pKd >= 4 for NPDALPETLV [ARHGAP6, O43182] ?
OUTPUT: satisfied

INPUT: Say whether GRLLGLETNV [ARHGEF26, Q96DR7] shows pKd of 4 or more.
OUTPUT: not satisfied
